# SUBJECT_OF_TEST: aromatase (CYP19) (Homo sapiens, UniProt P11511)
# Construct: The enzyme was obtained from the microsomal fraction of freshly delivered human term placental tissue; from tissue; host or cells: human term placenta, microsomal fraction
# Sequence (P11511 1-503): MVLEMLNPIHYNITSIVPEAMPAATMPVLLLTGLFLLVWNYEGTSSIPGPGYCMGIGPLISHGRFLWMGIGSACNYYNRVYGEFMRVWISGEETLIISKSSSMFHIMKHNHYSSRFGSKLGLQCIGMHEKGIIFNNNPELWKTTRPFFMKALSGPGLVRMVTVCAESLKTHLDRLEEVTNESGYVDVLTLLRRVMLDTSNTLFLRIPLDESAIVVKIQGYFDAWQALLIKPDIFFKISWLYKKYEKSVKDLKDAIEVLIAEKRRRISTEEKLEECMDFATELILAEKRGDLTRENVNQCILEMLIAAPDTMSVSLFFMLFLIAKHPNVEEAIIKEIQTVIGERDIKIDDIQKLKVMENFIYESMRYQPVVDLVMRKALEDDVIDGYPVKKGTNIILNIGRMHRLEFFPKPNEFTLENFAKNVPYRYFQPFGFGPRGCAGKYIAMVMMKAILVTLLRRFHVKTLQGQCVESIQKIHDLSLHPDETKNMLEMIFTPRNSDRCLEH
# ASSAY_PROCEDURE: Inhibition of aromatase, human placental microsomes, 3H2O release
# Type: biochemical
# EXPERIMENTAL_CONTEXT: human placental microsomes and [1β,2β-3H] testosterone; read-out: IC50 for the aromatase inhibitory activity
QUANTITY_KIND: pIC50
Here pIC50 is given on a logarithmic scale as minus log10 of the concentration in mol/L.

Please look at this compound and report its pIC50: COc1cc(/C=C2\Cc3ccccc3C2=O)ccc1OCCCn1ccnc1 [Compound 8] 6.26
